Assay: Mean relative potency is the ratio of potencies of 'Ac-(Cha)RAMASL-NH2' and compound, to inhibit MHC class II DRB1*0101
Starred links: 1 amine or outer side, 2 acyl side, 3 side chain; linkers in the order of their positions; H or OH if unused. Non-standard residues stand in square brackets, D forms with d. Residues, ends and D or L forms follow the SMILES beside them. *: point of attachment. X10 = O=C([C@H](Cc1ccc2c(c1)OCO2)N[*:1])[*:2]; X5 = CC1CCC(C[C@@H](N[*:1])C(=O)[*:2])CC1; Cha = N[C@@H](CC1CCCCC1)C(=O)O; NHCH2CH2OH = OCCN*
reportedMetric: Mean relative potency

compound: CSCC[C@H](NC(=O)[C@H](CCSC)NC(=O)[C@H](CCCN=C(N)N)NC(=O)[C@H](CC1CCCCC1)NC(C)=O)C(=O)N[C@@H](C)C(=O)N[C@@H](CO)C(N)=O (Ac-[Cha]RMMAS-NH2)
value: 1.38
--
compound: CC(=O)N[C@@H](CC1CCCCC1)C(=O)N[C@@H](CCCN=C(N)N)C(=O)N[C@@H](C)C(N)=O
value: 0
--
compound: CSCC[C@H](NC(=O)[C@H](C)NC(=O)[C@H](CCCN=C(N)N)NC(=O)[C@H](Cc1ccc2c(c1)OCO2)NC(C)=O)C(=O)N[C@@H](C)C(=O)N[C@@H](CO)C(=O)N[C@@H](CC(C)C)C(N)=O (Ac-[X10]RAMASL-NH2)
value: 1.31
--
compound: CSCC[C@H](NC(=O)[C@H](C)NC(=O)[C@H](CCCN=C(N)N)NC(=O)[C@@H](CC1CCC(C)CC1)NC(C)=O)C(=O)N[C@@H](C)C(=O)N[C@@H](CO)C(=O)N[C@@H](CC(C)C)C(N)=O (stereo not given in full) (Ac-[X5]RAMASL-NH2)
value: 1.17
--
compound: CSCC[C@H](NC(=O)[C@H](CCSC)NC(=O)[C@H](CCCN=C(N)N)NC(=O)[C@H](CC1CCCCC1)NC(C)=O)C(=O)N[C@@H](C)C(=O)NCCO (Ac-[Cha]RMMA-NHCH2CH2OH)
value: 0.33

====

Assay: Mean relative potency is the ratio of potencies of 'Ac-(Cha)RAMASL-NH2' and compound, to inhibit MHC class II DRB1*0401
Starred links: 1 amine or outer side, 2 acyl side, 3 side chain; linkers in the order of their positions; H or OH if unused. Non-standard residues stand in square brackets, D forms with d. Residues, ends and D or L forms follow the SMILES beside them. X4 = O=C([C@H](CC1CC2CCC1CC2)N[*:1])[*:2]; X5 = CC1CCC(C[C@@H](N[*:1])C(=O)[*:2])CC1; Phe(3-F) = N[C@@H](Cc1cccc(F)c1)C(=O)O; Phe(3-I) = N[C@@H](Cc1cccc(I)c1)C(=O)O; NMeR = CN[C@@H](CCCNC(=N)N)C(=O)O; Cha = N[C@@H](CC1CCCCC1)C(=O)O; NMeS = CN[C@@H](CO)C(=O)O; NMeA = CN[C@@H](C)C(=O)O; Nle = CCCC[C@H](N)C(=O)O
Quick rule for you: Mean relative potency at 1 or higher means MET, lower means NOT MET.

compound: CCCC[C@H](NC(=O)[C@H](C)NC(=O)[C@H](CCCN=C(N)N)NC(=O)[C@H](CC1CCCCC1)NC(C)=O)C(=O)N[C@@H](C)C(=O)N[C@@H](CO)C(=O)N[C@@H](CC(C)C)C(N)=O (Ac-[Cha]RA[Nle]ASL-NH2)
class: NOT MET
--
compound: CSCC[C@H](NC(=O)[C@H](C)NC(=O)[C@H](CCCN=C(N)N)NC(=O)[C@H](CC1CCCCC1)NC(C)=O)C(=O)N[C@H](C)C(=O)N[C@@H](CO)C(=O)N[C@H](C(N)=O)C(C)(C)C
class: MET
--
compound: CSCC[C@H](NC(=O)[C@H](C)NC(=O)[C@H](CCCN=C(N)N)N(C)C(=O)[C@H](CC1CCCCC1)NC(C)=O)C(=O)N[C@@H](C)C(=O)N[C@@H](CO)C(=O)N[C@@H](CC(C)C)C(N)=O (Ac-[Cha][NMeR]AMASL-NH2)
class: NOT MET
--
compound: CSCC[C@H](NC(=O)[C@H](C)NC(=O)[C@H](CCCN=C(N)N)NC(=O)[C@H](CC1CCCCC1)NC(C)=O)C(=O)N[C@H](C)C(N)=O
class: NOT MET
--
compound: CC(=O)N[C@@H](CC1CCCCC1)C(=O)N[C@@H](CCCN=C(N)N)C(=O)N[C@@H](C)C(=O)N[C@@H](CC(C)C)C(=O)N[C@@H](C)C(=O)N[C@@H](CO)C(=O)N[C@@H](CC(C)C)C(N)=O (Ac-[Cha]RALASL-NH2)
class: NOT MET
--
compound: CSCC[C@H](NC(=O)[C@H](C)NC(=O)[C@H](CCCN=C(N)N)NC(=O)[C@@H](CC1CC2CCC1C2)NC(C)=O)C(=O)N[C@@H](C)C(=O)N[C@@H](CO)C(=O)N[C@@H](CC(C)C)C(N)=O (stereo partly drawn)
class: MET
--
compound: CSCC[C@H](NC(=O)[C@H](C)N(C)C(=O)[C@H](CCCN=C(N)N)NC(=O)[C@H](CC1CCCCC1)NC(C)=O)C(=O)N[C@@H](C)C(=O)N[C@@H](CO)C(=O)N[C@@H](CC(C)C)C(N)=O (Ac-[Cha]R[NMeA]MASL-NH2)
class: NOT MET
--
compound: CSCC[C@H](NC(=O)[C@H](CCSC)NC(=O)[C@H](CCCN=C(N)N)NC(=O)[C@H](CC1CCCCC1)NC(C)=O)C(=O)N[C@@H](C)C(=O)N[C@@H](CO)C(N)=O (Ac-[Cha]RMMAS-NH2)
class: NOT MET
--
compound: CSCC[C@H](NC(=O)[C@H](C)NC(=O)[C@H](CCCN=C(N)N)NC(=O)[C@@H](CC1CCC(C)CC1)NC(C)=O)C(=O)N[C@@H](C)C(=O)N[C@@H](CO)C(=O)N[C@@H](CC(C)C)C(N)=O (stereo partly drawn) (Ac-[X5]RAMASL-NH2)
class: NOT MET
--
compound: CC(=O)N[C@@H](CC1CCCCC1)C(=O)N[C@@H](CCCN=C(N)N)C(=O)N[C@@H](C)C(N)=O
class: NOT MET
--
compound: CSCC[C@H](NC(=O)[C@H](C)NC(=O)[C@H](CCCN=C(N)N)NC(=O)[C@H](CC1CCCCC1)NC(C)=O)C(=O)N[C@H](C)C(=O)N[C@@H](CO)C(=O)N(C)[C@@H](CC(C)C)C(N)=O
class: NOT MET
--
compound: CSCC[C@H](NC(=O)[C@H](C)NC(=O)[C@H](CCCN=C(N)N)NC(=O)[C@H](Cc1cccc(I)c1)NC(C)=O)C(=O)N[C@@H](C)C(=O)N[C@@H](CO)C(=O)N[C@@H](CC(C)C)C(N)=O (Ac-[Phe(3-I)]RAMASL-NH2)
class: MET
--
compound: CSCC[C@H](NC(=O)[C@H](C)NC(=O)[C@H](CCCN=C(N)N)NC(=O)[C@H](CC1CCCCC1)NC(C)=O)C(N)=O (Ac-[Cha]RAM-NH2)
class: NOT MET
--
compound: CSCC[C@H](NC(=O)[C@H](C)NC(=O)[C@H](CCCN=C(N)N)NC(=O)[C@H](CC1CC2CCC1CC2)NC(C)=O)C(=O)N[C@@H](C)C(=O)N[C@@H](CO)C(=O)N[C@@H](CC(C)C)C(N)=O (stereo partly drawn) (Ac-[X4]RAMASL-NH2)
class: MET
--
compound: CSCC[C@H](NC(=O)[C@H](C)NC(=O)[C@H](CCCN=C(N)N)NC(=O)[C@H](CC1CCCCC1)NC(C)=O)C(=O)N1CCC[C@@H]1C(=O)N[C@@H](CO)C(=O)N[C@@H](CC(C)C)C(N)=O
class: NOT MET
--
compound: CSCC[C@H](NC(=O)[C@H](C)NC(=O)[C@H](CCCN=C(N)N)NC(=O)[C@H](Cc1cccc(F)c1)NC(C)=O)C(=O)N[C@@H](C)C(=O)N[C@@H](CO)C(=O)N[C@@H](CC(C)C)C(N)=O (Ac-[Phe(3-F)]RAMASL-NH2)
class: MET
--
compound: CSCC[C@H](NC(=O)[C@H](C)NC(=O)[C@H](CCCN=C(N)N)NC(=O)[C@H](CC1CCCCC1)NC(C)=O)C(=O)N[C@@H](C)C(=O)N(C)[C@@H](CO)C(=O)N[C@@H](CC(C)C)C(N)=O (Ac-[Cha]RAMA[NMeS]L-NH2)
class: NOT MET
